experiment: Antiproliferative activity against human PANC1 cells assessed as reduction in cell viability after 72 hrs by MTT assay; format: functional, cell-based; conditions: PANC-1, 72 h
pIC50: −log10 of the molar value.
Classify by measured pIC50: 1.0 if it is equal to or exceeds 5, 0.0 if it is smaller.

Some solved entries appear below for comparison.
compound | group-label
CC(C)Cc1ccc(C(C)C(=O)O)cc1 (configuration not stated) | 0.0
COc1ccc2cc([C@H](C)C(=O)NCC[Se]C#N)ccc2c1 | 0.0
C[Se]CC(NC(=O)c1ccccc1OC(C)=O)C(=O)O (configuration not stated) | 0.0

Incoming: Could you verify whether the entry CC(C)Cc1ccc(C(C)C(=O)NCC[Se]C#N)cc1 (configuration not stated) shows pIC50 of no less than 5?
Outgoing: 0.0

Incoming: Is reported pIC50 greater than or equal to 5 here: `CC(=O)Oc1ccccc1C(=O)OCC[Se]C#N`
Outgoing: 0.0

Incoming: Does the reported pIC50 for `CC(=O)Oc1ccccc1C(=O)O` fall at or above the 5 mark?
Outgoing: 0.0

----------
test: Antiproliferative activity against human DU145 cells assessed as reduction in cell viability after 24 hrs by MTT assay; assay type: functional, cell-based; settings: DU-145, 24 h
recorded-endpoint: IC50 (µM)
Record the value in µM, omitting the unit from your answer.

Incoming: Any idea what IC50 was measured for `CC(=O)Oc1ccccc1C(=O)NCC[Se]C#N` ?
Outgoing: 8.2

----------
# Lookup of reported IC50 keyed by entry
test system: UACC-903; assay: Antiproliferative activity against human UACC-903 cells assessed as reduction in cell viability after 48 hrs by MTT assay; type: functional, cell-based; details: UACC-903, 48 h
Write down the numeric answer in µM and omit the unit.

Solved cases below.
smiles-data | IC50 [µM]
CC(=O)Oc1ccccc1C(=O)[Se]CC[Se]C(=O)c1ccccc1OC(C)=O | 3.6
CC(=O)Oc1ccccc1C(=O)NCC[Se]C#N | 4

Incoming: Short answer please: IC50, UACC-903, entry `CC(=O)Oc1ccccc1C(=O)[Se]CCBr`
Outgoing: 19.4

Incoming: Hello, I am looking for reported IC50 with UACC-903 for `CC(=O)Oc1ccccc1C(=O)[Se]CC[Se]C#N` . Could you help?
Outgoing: 15.8

Incoming: Report IC50 for `CC(=O)Oc1ccccc1C(=O)OCC[Se]C#N` tested on UACC-903.
Outgoing: 14.5

----------
pIC50 overview
system: HT-29; assay: Antiproliferative activity against human HT-29 cells assessed as reduction in cell viability after 48 hrs by MTT assay; format: functional, cell-based; details: HT-29, 48 h
# log scale: pIC50 equals minus log10 of the concentration in mol/L

smiles-data | recorded-result
CC(=O)Oc1ccccc1C(=O)[Se]CC[Se]C(=O)c1ccccc1OC(C)=O | 5.46
CC(=O)Oc1ccccc1C(=O)OCC[Se]C#N | 4.51
CC(=O)Oc1ccccc1C(=O)NCC[Se]C#N | 5.68
CC(=O)Oc1ccccc1C(=O)[Se]CCBr | 4.56

Switching to the query record.
Incoming: Entry `CC(=O)Oc1ccccc1C(=O)[Se]CC[Se]C#N` : reported pIC50 = ?
Outgoing: 4.56

----------
tested on: HT-29; experiment: Antiproliferative activity against human HT-29 cells assessed as reduction in cell viability after 72 hrs by MTT assay; assay type: functional, cell-based; settings: HT-29, 72 h
recorded-endpoint: pIC50
Here pIC50 is given on a logarithmic scale as minus log10 of the concentration in mol/L.

smiles-data | assayed-target | pIC50
CC(=O)Oc1ccccc1C(=O)OCC[Se]C#N | HT-29 | 4.69
CC(=O)Oc1ccccc1C(=O)[Se]CCBr | HT-29 | 4.71
CC(=O)Oc1ccccc1C(=O)NCC[Se]C#N | HT-29 | 5.68
CC(=O)Oc1ccccc1C(=O)[Se]CC[Se]C#N | HT-29 | 4.75

// next entry
Incoming: Entry `CC(=O)Oc1ccccc1C(=O)[Se]CC[Se]C(=O)c1ccccc1OC(C)=O` has what pIC50?
Outgoing: 5.26

----------
test: Antiproliferative activity against human PANC1 cells assessed as reduction in cell viability after 72 hrs by MTT assay; assay type: functional, cell-based; settings: PANC-1, 72 h
recorded-endpoint: pIC50
Just so you know, pIC50 here is -log10 of the concentration in molar units; reply with that number alone.

Please review the following examples before continuing.
smiles-data | pIC50
CC(=O)Oc1ccccc1C(=O)NCCSC#N | 5.06
CC(=O)Oc1ccccc1C(=O)[Se]CC[Se]C#N | 5.02
CC(=O)Oc1ccccc1C(=O)[Se]CC[Se]C(=O)c1ccccc1OC(C)=O | 5.47

For the next question, use this molecule.
Incoming: # pIC50 lookup, item `CC(=O)Oc1ccccc1C(=O)NCC[Se]C#N`
Outgoing: 5.59
